Experiment: Human HepG2 cell viability assay in 384 well format
Assay type: toxicity, cell-based
Parameters: dose 125 nL, time 70.5 hour; concentration not given beside the values
Conditions: HepG2 cells, read-out: Inhibition
For each entry below, report its cytotoxicity at 70.5 h value.
Just the number please, in %, no unit attached.

Quickly give me recorded cytotoxicity at 70.5 h for CC(C)(C)c1ncc2c(n1)CN(c1cc(NCCO)nc(N)n1)C2
-12

Indicate the recorded cytotoxicity at 70.5 h value for this compound: COc1ccc(CNC(=O)Nc2cccnc2N2CCCC2)cc1O
-8.02

Give the value of cytotoxicity at 70.5 h reported for the following: Cc1cccc(CN2CCC3(CCCN(C(=O)NC(C)C)C3)C2=O)n1 (stereo not drawn)
-5.48

Indicate the recorded cytotoxicity at 70.5 h value for this compound: O=C1CO[C@H]2CN(C3CCOCC3)C[C@H]2N1Cc1ccc(F)cc1
16.1

Report measured cytotoxicity at 70.5 h; entry is Cc1ccc(C(=O)NCC(c2cnn(C)c2)N(C)C)c(O)c1 (stereo not drawn)
25.6

Give the reported cytotoxicity at 70.5 h for this compound. CC1CN(C(=O)c2ccnc(OCCN(C)C)c2)c2ccccc21 (stereo not drawn)
-14.8

Write down cytotoxicity at 70.5 h measured for item COCc1nc(C(=O)NS(=O)(=O)c2ccc(Cl)cc2F)cs1
-3.46

Indicate its recorded cytotoxicity at 70.5 h; the compound in question is Cc1ccoc1C(=O)N1CC[C@@]2(C[C@H](NS(C)(=O)=O)CCO2)C1
-18.1

Return value of cytotoxicity at 70.5 h for input CN1C(=O)CC(c2ccccc2)C12CCN(c1ncccn1)CC2 (stereo not drawn) , no commentary.
27.6

Specify reported cytotoxicity at 70.5 h for the compound shown: COc1ccc(S(=O)(=O)N2CCn3cnc(COCC4CC4)c3C2)cc1
10.3

Identify cytotoxicity at 70.5 h associated with the compound CC(C)n1ncc2c1NC(=O)C(C#N)C21CCCC1 (stereo not drawn)
-11.3

Please supply the value of reported cytotoxicity at 70.5 h for the item COc1cccc(OCCc2nnc(NC(C)=O)s2)c1
-6.24

Return value of cytotoxicity at 70.5 h for input Cc1cccc2cc(CN3CCCN4CCC[C@H]4C3)c(=O)[nH]c12 , no commentary.
1.79

Consider the compound O=C1CO[C@H]2CN(Cc3ccc(C(F)(F)F)cc3)C[C@H]2N1 and give its recorded cytotoxicity at 70.5 h.
-2.56

Supply reported cytotoxicity at 70.5 h belonging to this compound: CCN(C(C)=O)C1CCN(c2nccc(CCC(F)(F)F)n2)C1 (stereo not drawn)
-22.6

Annotate the compound CNC(=O)NC(=O)C(C)N1CCN(c2ccc(C#N)cc2F)CC1 (stereo not drawn) with its measured cytotoxicity at 70.5 h.
-12.9

Item Fc1cnc(N2CCCC3(CCN(Cc4ccsc4)C3)C2)nc1 (stereo not drawn) : provide cytotoxicity at 70.5 h
4.29

// Input: Cc1nn(-c2ccccn2)c2c1C(c1cnn(C)c1)SCC(=O)N2 (stereo not drawn) . Output its cytotoxicity at 70.5 h only.
-27.3

Note down cytotoxicity at 70.5 h recorded for O=C(NCc1cccc(F)c1)NCC(O)c1cccc(F)c1 (stereo not drawn)
20.3

Hello, please tell me recorded cytotoxicity at 70.5 h for this one: c1ccc([C@@H]2CN(Cc3ccncc3)C[C@H]2c2cc[nH]n2)cc1
-1.08

Hello, please tell me recorded cytotoxicity at 70.5 h for this one: CC1CN(C)CCN1C(=O)Nc1nc(-c2cccn2C)cs1 (stereo not drawn)
-13.9

Supply cytotoxicity at 70.5 h value. Item: Cc1nc(C)c(CN2CCOC(CNc3cccnn3)C2)s1 (stereo not drawn)
-5.6

Return the recorded cytotoxicity at 70.5 h value; entry: Cc1ccc(F)c(OC2(C(=O)O)CCN(C(=O)C3CCCC3)CC2)c1
-4.91
